Entries and their GI50 values follow.
Tested on: UO-31
assay_protocol: NCI tumour cell line growth inhibition, 48 h
Activity calls are given as the source filed them. No stated cut-off is given here; in the data, active = GI50 up to about 1.1 µM and inactive = higher.

Worked set:
INSERT INTO results (molecule, observation_type, measured) VALUES
  ('C=C1CC(OC(C)=O)/C=C(/C)CCC(C(C)(C)O)CC1O (stereo unspecified)', 'GI50', '> 100 µM (inactive)'),
  ('CCOCc1cc(=O)c2cc3c(cc2o1)OC(C)(C)CC3', 'GI50', '92.9 µM (inactive)'),
  ('O=C(Nc1ccccc1)OCCN=c1c2ccccc2ccc2ccccc12', 'GI50', '17 µM (inactive)'),
  ('CCOC(=O)c1nc2ccccc2nc1Nc1ccc(Cl)c(Cl)c1', 'GI50', '40.8 µM (inactive)'),
  ('CSc1nc(NC2OCC(O)C(O)C2O)c(N)c(=O)n1C (stereo unspecified)', 'GI50', '> 85.5 µM (inactive)');

Query molecule follows.
Query: Give GI50 for C=C(C)[C@@]1(O)CCC[C@H]1NC(=O)OC(C)(C)C
Result: > 100 µM (inactive)
